test_target: HLA-A*24:03
assay_overview: IEDB peptide-MHC binding, purified MHC/direct/fluorescence; filed as Kd, often an IC50 or EC50 that approximates it; bounds were set here for any values at or beyond the usual limits of such assays
protocol_conditions: source organism: Reston ebolavirus
reported_metric: Kd

Input: // query Kd value for entry KHDFIDNPL
Output: ≥ 20 µM

---

test_target: HLA-A*68:02
assay_overview: IEDB peptide-MHC binding, purified MHC/competitive/fluorescence; filed as Kd, often an IC50 or EC50 that approximates it; bounds were set here for any values at or beyond the usual limits of such assays
protocol_conditions: source organism: Escherichia coli str. K-12 substr. W3110
reported_metric: Kd

Input: Looking for the measured Kd of IQFDWYPTS , can you help?
Output: ≥ 20 µM

---

test_target: HLA-A*30:02
assay_overview: IEDB peptide-MHC binding, purified MHC/competitive/radioactivity; filed as Kd, often an IC50 or EC50 that approximates it; bounds were set here for any values at or beyond the usual limits of such assays
protocol_conditions: source organism: Dengue virus 1 Singapore/S275/1990
reported_metric: pKd
The meaning of pKd here: minus log10 of the concentration in molar units.

Input: Give the reported pKd for KLTLKGMSY (system: HLA-A*30:02).
Output: 6.28

---

test_target: HLA-A*69:01
assay_overview: IEDB peptide-MHC binding, purified MHC/direct/fluorescence; filed as Kd, often an IC50 or EC50 that approximates it; bounds were set here for any values at or beyond the usual limits of such assays
protocol_conditions: source organism: Mycobacterium tuberculosis
reported_metric: Kd

[[record]]
ordered_residues = "AVGIGLRLV"
test_target = "HLA-A*69:01"
reported_metric = "Kd"
recorded_result = "≥ 20 µM"


// next entry
Input: Given the sequence RPRLWRSVI , what is its reported Kd?
Output: ≥ 20 µM

---

test_target: HLA-A*02:06
assay_overview: IEDB peptide-MHC binding, purified MHC/competitive/radioactivity; filed as Kd, often an IC50 or EC50 that approximates it; bounds were set here for any values at or beyond the usual limits of such assays
protocol_conditions: source organism: Mammarenavirus brazilense
reported_metric: pKd
Formally, pKd is defined as -log10 of the concentration c, with c in mol/L.

Input: pKd of GLLEWIFRA on HLA-A*02:06?
Output: 8.15

---

test_target: HLA-B*15:42
assay_overview: IEDB peptide-MHC binding, purified MHC/competitive/fluorescence; filed as Kd, often an IC50 or EC50 that approximates it; bounds were set here for any values at or beyond the usual limits of such assays
protocol_conditions: source organism: Rickettsia bellii RML369-C
pKd: −log10 of the molar value.
reported_metric: pKd

Input: // pKd lookup, key: FAYKTGSSM
Output: ≤ 5.30

---

test_target: HLA-A*02:01
assay_overview: IEDB peptide-MHC binding, purified MHC/competitive/fluorescence; filed as Kd, often an IC50 or EC50 that approximates it; bounds were set here for any values at or beyond the usual limits of such assays
protocol_conditions: source organism: Vibrio vulnificus CMCP6
reported_metric: Kd (nM)
API: value field is a number in nM; no unit string.

Input: Find the recorded Kd belonging to LMLHQQYNQ and report it.
Output: 191

---

test_target: HLA-B*53:01
assay_overview: IEDB peptide-MHC binding, purified MHC/competitive/fluorescence; filed as Kd, often an IC50 or EC50 that approximates it; bounds were set here for any values at or beyond the usual limits of such assays
protocol_conditions: source organism: Listeria monocytogenes J0161
pKd: −log10 of the molar value.
reported_metric: pKd

Input: Return reported pKd; argument: AALEGLSGF
Output: ≤ 5.30
